The values you see were collected from paper PMC7339578.

# assay notes: Plasma pharmacokinetics in rats after a 30-min intravenous infusion of Kang-Ai injection
# Format: in vivo, Sprague–Dawley rats
# test parameters: rat, in vivo, iv
reported metric: t1/2

| compound | reported metric | result |
| --- | --- | --- |
| O=C1CCCC2=C3CCC[N+]4([O-])CCC[C@@H](CN12)[C@@H]34 (some centres unmarked) [Compound A7, Leontalbinine N-oxide] | t1/2 | 5.73 ± 1.74 h |
| CC(C)=CCC[C@](C)(O)[C@H]1CC[C@]2(C)[C@@H]1[C@H](O)C[C@@H]1[C@@]3(C)CC[C@H](O)C(C)(C)[C@@H]3[C@@H](O[C@@H]3O[C@H](CO)[C@@H](O)[C@H](O)[C@H]3O[C@@H]3OC[C@@H](O)[C@H](O)[C@H]3O)C[C@]12C [Compound C3, Notoginsenoside R2] | t1/2 | 0.29 ± 0.12 h |

###

# assay notes: Stability tests of analytes in rat plasma QC samples
# Format: in vitro ADME
# test parameters: rat plasma, nominal conc. 100 nM

| compound | At -80 °C for 48 h, Mean±SD, nM |
| --- | --- |
| CC(C)=CCC[C@](C)(O[C@@H]1O[C@H](CO[C@@H]2OC[C@H](O)[C@H](O)[C@H]2O)[C@@H](O)[C@H](O)[C@H]1O)[C@H]1CC[C@]2(C)[C@@H]1[C@H](O)C[C@@H]1[C@@]3(C)CC[C@H](O[C@@H]4O[C@H](CO)[C@@H](O)[C@H](O)[C@H]4O[C@@H]4O[C@H](CO)[C@@H](O)[C@H](O)[C@H]4O)C(C)(C)[C@@H]3CC[C@]12C [Compound D4, Ginsenoside Rb2] | 95.34 |
| O=C1C=CC[C@@H]2[C@H]3CCC[N+]4([O-])CCC[C@@H](CN12)[C@@H]34 (stereo partly shown) | 112.64 |
| CC(C)=CCC[C@](C)(O[C@@H]1O[C@H](CO[C@@H]2O[C@@H](CO)[C@H](O)[C@H]2O)[C@@H](O)[C@H](O)[C@H]1O)[C@H]1CC[C@]2(C)[C@@H]1[C@H](O)C[C@@H]1[C@@]3(C)CC[C@H](O[C@@H]4O[C@H](CO)[C@@H](O)[C@H](O)[C@H]4O[C@@H]4O[C@H](CO)[C@@H](O)[C@H](O)[C@H]4O)C(C)(C)[C@@H]3CC[C@]12C [Compound D3, Ginsenoside Rc] | 92.14 |
| CC(C)=CCC[C@](C)(O[C@@H]1O[C@H](CO)[C@@H](O)[C@H](O)[C@H]1O)[C@H]1CC[C@]2(C)[C@@H]1[C@H](O)C[C@@H]1[C@@]3(C)CC[C@H](O)C(C)(C)[C@@H]3[C@@H](O[C@@H]3O[C@H](CO)[C@@H](O)[C@H](O)[C@H]3O[C@@H]3OC[C@@H](O)[C@H](O)[C@H]3O)C[C@]12C [Compound C8, Notoginsenoside R1] | 98.21 |

###

# measured on: CYP2C8 (Homo sapiens, UniProt P10632)
# Sequence (P10632 whole entry): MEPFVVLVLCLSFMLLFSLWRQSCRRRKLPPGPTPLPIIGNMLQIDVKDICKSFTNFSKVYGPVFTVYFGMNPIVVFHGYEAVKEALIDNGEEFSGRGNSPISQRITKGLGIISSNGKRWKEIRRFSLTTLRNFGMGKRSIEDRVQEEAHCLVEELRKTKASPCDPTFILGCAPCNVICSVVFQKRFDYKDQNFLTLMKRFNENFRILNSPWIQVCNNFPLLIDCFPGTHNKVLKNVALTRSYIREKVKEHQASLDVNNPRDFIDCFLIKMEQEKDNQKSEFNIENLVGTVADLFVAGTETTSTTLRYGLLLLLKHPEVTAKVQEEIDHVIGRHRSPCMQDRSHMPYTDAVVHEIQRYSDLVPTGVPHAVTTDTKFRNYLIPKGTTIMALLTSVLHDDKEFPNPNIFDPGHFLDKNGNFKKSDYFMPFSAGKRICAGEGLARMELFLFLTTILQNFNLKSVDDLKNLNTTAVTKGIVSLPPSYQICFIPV
# assay notes: Inhibition of recombinant CYP2C8 (probe paclitaxel)
# Type: in vitro ADME
# test parameters: IC50 towards CYP2C8, recombinant isozyme; mean ± SD of triplicate; unit not given (IC50 classes in μM)
reported metric: IC50

| compound | result |
| --- | --- |
| O=C1CCC[C@@H]2[C@H]3CCC[N+]4([O-])CCC[C@@H](CN12)[C@@H]34 (stereo partly shown) | > 100 µM |
